Hello, the source for this data is the Deep4Chem optical property database, in case you need it.

test: photoluminescence quantum yield (fraction); solvent given as SMILES; details: in CC#N
Returns TRUE if the recorded photoluminescence quantum yield is greater than or equal to 0.08, and FALSE otherwise.

Previously resolved entries follow.
c1ccc(-[c+]2c3ccccc3oc3ccccc32)cc1; TRUE
O=C1c2ccccc2-c2ccc(N3CCN(c4ccccc4)CC3)c3cccc1c23; FALSE
Cc1ccc2nc3c(=O)[nH]c(=O)[nH]c3nc2c1C; FALSE
COc1ccc(-n2nc(C#N)c(NC3CCCCC3)n2)cc1; TRUE
O=C(O)c1ccc(-c2ccc(-c3nc(-c4ccccc4)c4ccccn34)cc2)s1; TRUE
CN(C)c1ccc2cc(C3=[O+][B-](F)(F)OC(c4ccc(C#N)cc4)=C3)ccc2c1; FALSE

Check the entry Cc1ccc(-c2ccc(/C=C/c3ccc([N+](=O)[O-])cc3)cn2)nc1 : does photoluminescence quantum yield equal or exceed 0.08?
FALSE

Item: Brc1ccc(-c2nc(-c3ccc(C#Cc4ccc(-n5c6ccccc6c6ccccc65)cc4)cc3)nc(-c3ccc(C#Cc4ccc(-n5c6ccccc6c6ccccc65)cc4)cc3)n2)cc1
FALSE

Please give the result for O=P1(c2ccccc2)C2=C(c3ccccc31)[Si](c1ccccc1)(c1ccccc1)c1cc(N(c3ccccc3)c3ccccc3)ccc12 (stereo not given) too.
TRUE
